- target_entity: recombinant human MAO-A (Homo sapiens)
- Sequence (P21397 1-527): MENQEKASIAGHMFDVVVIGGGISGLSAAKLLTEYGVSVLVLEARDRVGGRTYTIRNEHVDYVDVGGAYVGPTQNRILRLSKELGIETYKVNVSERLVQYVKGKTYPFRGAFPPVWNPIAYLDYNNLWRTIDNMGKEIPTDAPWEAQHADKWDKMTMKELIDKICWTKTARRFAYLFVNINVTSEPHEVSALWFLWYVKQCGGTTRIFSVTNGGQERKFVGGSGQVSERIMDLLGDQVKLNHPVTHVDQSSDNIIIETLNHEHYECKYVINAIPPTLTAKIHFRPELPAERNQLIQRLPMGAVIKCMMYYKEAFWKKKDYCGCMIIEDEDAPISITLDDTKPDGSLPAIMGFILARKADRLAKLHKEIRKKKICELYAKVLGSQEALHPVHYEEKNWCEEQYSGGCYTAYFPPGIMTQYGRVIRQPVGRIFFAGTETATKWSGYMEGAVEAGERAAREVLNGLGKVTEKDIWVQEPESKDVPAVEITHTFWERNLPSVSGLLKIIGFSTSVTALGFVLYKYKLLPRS
- method: MAO-A inhibition assay
pIC50: −log10 of the molar value.
recorded_endpoint: pIC50

Q) Data request, read-out pIC50, for O=C(/C=C/c1ccccc1Cl)c1cc2ccccc2oc1=O [CC2]
A) < 4.40

---

- target_entity: BChE (Equus caballus, UniProt P81908)
- Sequence (P81908 whole entry): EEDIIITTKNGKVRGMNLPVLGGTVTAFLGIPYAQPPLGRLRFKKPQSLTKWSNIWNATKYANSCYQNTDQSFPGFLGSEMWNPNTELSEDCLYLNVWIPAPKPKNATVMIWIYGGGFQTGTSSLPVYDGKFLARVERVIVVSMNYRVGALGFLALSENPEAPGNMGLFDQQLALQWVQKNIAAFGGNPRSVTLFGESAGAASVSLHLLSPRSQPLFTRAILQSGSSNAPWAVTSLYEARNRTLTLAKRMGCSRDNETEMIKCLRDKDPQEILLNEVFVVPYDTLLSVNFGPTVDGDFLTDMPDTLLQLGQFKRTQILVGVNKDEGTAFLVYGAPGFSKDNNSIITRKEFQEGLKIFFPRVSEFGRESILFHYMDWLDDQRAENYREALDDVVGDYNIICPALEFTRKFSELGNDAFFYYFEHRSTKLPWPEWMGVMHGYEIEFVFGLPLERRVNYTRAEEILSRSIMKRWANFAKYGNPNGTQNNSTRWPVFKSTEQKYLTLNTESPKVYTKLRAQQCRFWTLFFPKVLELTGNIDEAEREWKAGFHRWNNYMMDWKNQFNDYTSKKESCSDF
recorded_endpoint: pIC50
Scale for pIC50: -log10 of concentration given in mol/L; no unit attached.

Q) Data request, read-out pIC50, for O=C(/C=C/c1ccccc1Cl)c1cc2ccccc2oc1=O
A) 5.15

---

- target_entity: AChE (Electrophorus electricus, UniProt O42275)
- Sequence (O42275 24-633): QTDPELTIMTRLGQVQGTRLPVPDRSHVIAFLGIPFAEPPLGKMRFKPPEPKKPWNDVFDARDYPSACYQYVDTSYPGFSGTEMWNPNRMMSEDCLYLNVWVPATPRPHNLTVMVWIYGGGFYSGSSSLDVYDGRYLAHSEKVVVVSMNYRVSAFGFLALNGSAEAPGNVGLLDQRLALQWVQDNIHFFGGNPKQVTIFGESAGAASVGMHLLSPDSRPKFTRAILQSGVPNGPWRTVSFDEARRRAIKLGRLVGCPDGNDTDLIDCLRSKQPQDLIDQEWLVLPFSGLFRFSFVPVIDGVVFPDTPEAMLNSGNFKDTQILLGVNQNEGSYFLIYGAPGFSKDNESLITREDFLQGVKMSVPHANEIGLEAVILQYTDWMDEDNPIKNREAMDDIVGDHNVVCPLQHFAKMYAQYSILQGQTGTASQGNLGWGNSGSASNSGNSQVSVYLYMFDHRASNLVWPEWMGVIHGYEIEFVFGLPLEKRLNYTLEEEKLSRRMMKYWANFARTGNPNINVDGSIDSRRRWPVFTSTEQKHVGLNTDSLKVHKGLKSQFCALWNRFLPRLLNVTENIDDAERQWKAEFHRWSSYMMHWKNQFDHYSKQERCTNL
- method: AChE inhibition assay
- Format: biochemical
- condition_description: IC50 (μM) AChE, means ± standard errors; reference compounds after preincubation for 30 min with enzymes
recorded_endpoint: IC50 (µM)
Entry rule: numbers only, all in µM.

Q) Data request, read-out IC50, for O=C(/C=C/c1ccccc1Cl)c1cc2ccccc2oc1=O [CC2]
A) 40.1

---

- method: In vitro toxicity by MTT on Vero cells
- condition_description: African green monkey, Vero cells (African green monkey kidney epithelial cells), Vero cell viability, up to 100 μg/mL, 48 h, MTT
recorded_endpoint: viability at 48 h, 100 μg/mL

Q) Data request, read-out viability at 48 h, 100 μg/mL, for O=C(/C=C/c1ccccc1Cl)c1cc2ccccc2oc1=O
A) ~70%

---

- target_entity: BChE (Equus caballus, UniProt P81908)
recorded_endpoint: pKi
Scale for pKi: -log10 of concentration given in mol/L; no unit attached.

Q) Data request, read-out pKi, for O=C(/C=C/c1ccccc1Cl)c1cc2ccccc2oc1=O
A) 5.55
